# target.system: LIMK1KD (Homo sapiens, UniProt P53667)
# Construct: His6 (N, cleaved yes); made in house; host or cells: baculovirus; Sf9 for virus, TriEx insect cells for expression
# Sequence (P53667 330-637): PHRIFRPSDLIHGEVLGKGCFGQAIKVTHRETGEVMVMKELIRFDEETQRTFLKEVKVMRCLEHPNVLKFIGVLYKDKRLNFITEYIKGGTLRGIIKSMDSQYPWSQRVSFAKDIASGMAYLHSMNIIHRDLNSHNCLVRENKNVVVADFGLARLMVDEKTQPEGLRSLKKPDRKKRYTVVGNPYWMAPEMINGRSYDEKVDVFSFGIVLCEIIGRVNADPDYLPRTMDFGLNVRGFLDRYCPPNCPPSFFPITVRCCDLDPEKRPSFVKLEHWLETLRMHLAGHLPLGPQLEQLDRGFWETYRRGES
# protocol.notes: Differential (dynamic) scanning fluorimetry (DSF) assay, LIMK1KD
# Type: binding
# condition.context: 2 µM LIMK1KD, compound 10 µM, single shot
Y means recorded TM Shift LIMK1 (K) is 0.8 K or above; N means it is below 0.8 K.

compound: CN(C)Cc1cccc(N/C(=C2\C(=O)Nc3cc(C(=O)N(C)C)ccc32)c2ccccc2)c1 [BIX 02189]
answer.label: N

Challenge: Does the compound CNC(=O)Nc1ccc(-c2nc(N3CC4CCC(C3)O4)c3cnn(C4CCC5(CC4)OCCO5)c3n2)cc1 [WYE-125132 (WYE-132)] have recorded TM Shift LIMK1 (K) that is 0.8 K or more?
Response given: N

Challenge: Next: CC(C)(C)c1cc(C=C(C#N)C#N)cc(C(C)(C)C)c1O [Tyrphostin 9]
Response given: Y

---

# target.system: LIMK1KD (Homo sapiens)
# Construct: His6 (N, cleaved yes); made in house; host or cells: baculovirus; Sf9 for virus, TriEx insect cells for expression
# protocol.notes: Differential (dynamic) scanning fluorimetry (DSF) assay, LIMK1KD
# Assay type: binding
# condition.context: 2 µM LIMK1KD, compound 10 µM, single shot
measured.property: TM Shift LIMK1 (K)
Write down the numeric answer in K and omit the unit.

compound: Clc1ccc(C2(c3ccc(-c4cn[nH]c4)cc3)CCNCC2)cc1
units.text: K
TM Shift LIMK1 (K): 0.9

Challenge: Provide value of TM Shift LIMK1 (K) for this record tested with LIMK1KD (Homo sapiens): `O=C1Nc2ccc(I)cc2/C1=C/c1cc(Br)c(O)c(Br)c1`
Response given: 0.0

Challenge: Next: Nc1ncnc2c1c(-c1cccc(OCc3ccccc3)c1)cn2C1CC(CN2CCCC2)C1 (stereo not drawn)
Response given: 0.2

Challenge: Next: `COc1cc(N2CCC(N)CC2)ccc1Nc1ncc(Cl)c(-c2c[nH]c3ccccc23)n1`
Response given: 2.5

Challenge: Next: `Cc1[nH]nc2ccc(-c3cncc(OC[C@@H](N)Cc4ccccc4)c3)cc12`
Response given: 0.8

Challenge: Next: `CC[C@H](CO)Nc1nc(NCc2ccccc2)c2ncn(C(C)C)c2n1`
Response given: 0.1

Provenance of the data: paper PMC6835155
